assay: soluble on expression in E. coli; label from the status in PepcDB or PDB records
property: soluble on expression in E. coli

>>> datavalue("MKKIAIFAKVHDPRCQGVASELIAWLEARGLIPLVEAHLARHLGGRQGIVPEDIPVLADMAVVLGGDGTLISAARLIGSRQIPILGVNLGSLGFLTEITLDELYPVLESCLSGDFQVTERMMLTVSVERNGEEICSHRVLNDVVINKGALARIIDMETEVSGIRLTTYKADGLIISTPTGSTGYSLSANGPIVHPSLECITITPICPHTLTNRPIVLESSSGVTVWLRSKDEDVYLTLDGQVGMELKCGDAVHVRRAAHRTRLVMSRSRNYFEVLRTKLKWGERAAALEHHHHHH")
"soluble"
>>> datavalue("MSLRTMLTQKFVVDSMLGKIARWLRIMGYDTLYSNDFEDWKILKIAETQKRIIITRDRGIYYRSLKRGLNCILLSPDSNIIQDLAFIALRSKIDLSVNINATRCPQCNSVLSKLSESMWLCPKCKKEYWKGRHWRTIEEIIIKANSELVKLETKNDSRGTGTDTGVKRRDRTVTNRNSEGHHHHHH")
"soluble"
>>> datavalue("MKMMDANEIISFIQKSEKKTPVKVYIKGDLKEVTFPETVQAFVNKKSGVLFGEWSEIKTILDENSKYIVDYVVENDRRNSAIPMLDLKGIKARIEPGAIIRDHVEIGDNAVIMMNATINIGAVIGEGSMIDMNAVLGGRATVGKNCHVGAGAVLAGVIEPPSAKPVIVEDDVVIGANVVVLEGVTVGKGAVVAAGAVVTEDVPPYTVVAGTPARVIKEIDEKTKAKTEIKQELRQLNPEK")
"not soluble"
>>> datavalue("MGSDKIHHHHHHMPVQQLFYKTAVPVSAKRHGDLSISSGKTYAFARHTNSIPLTALEFGPAAGTHPIVFAGTGEDVVPAIIVGTREDENLAVDADGNWQGTYIPAFARRYPFIFSLDKDKNQFTLLVDEEFEGANRDGRGERLFDSEGEQTGYLKSVLKFLQDYQAGFARTQAFCKRLKELDLLVPMQAEFSLGAGQKRTLGGFQVVDREKLKALSGEVLADLCRKDELECIYLHLSSMRHFRQMLERANTEASEAEPETDAADVAEPMAET")
"not soluble"
>>> datavalue("MTQPFNFEQALKDLQSGKSLTGKDSILGPLIKQLTEAALQAELEQHLAHDPQPNRKNGKTPKTIKHPSGNFELDAPRDRNGTFEPQLIKKNQTTLTDEIERKVLSMFSIGMSYRDINQHVEDMYGLNVSNATVSAITDKLIPELKAWQQRPLDSHYPIVWLDAIHYKVKEDGRYVSKAVYTLLALNMKGKKEILGLHLSENEGANYWLSVLADLNNRGVKDILIACVDGLTGFPEAIASIFPHTETQLCVIHQIRNSMKYVASKNQKAFMADLKPVYRAVSKEAAEMALDELEAKWGDAYPLVINSWRRKWHNLSHYFKYPEHIRKVIYTTNAVEAVHRQFRKLTKTKGAFPNENSLLKLLYAGILNASDKWTMPIHNWSLCLSQLAIYFEGRLDSVLEI")
"not soluble"
